Origin of values: patent US8470810B2

# SYSTEM_TESTED: human dopamine D3 receptors (Homo sapiens, UniProt P35462)
# Sequence (P35462 whole entry): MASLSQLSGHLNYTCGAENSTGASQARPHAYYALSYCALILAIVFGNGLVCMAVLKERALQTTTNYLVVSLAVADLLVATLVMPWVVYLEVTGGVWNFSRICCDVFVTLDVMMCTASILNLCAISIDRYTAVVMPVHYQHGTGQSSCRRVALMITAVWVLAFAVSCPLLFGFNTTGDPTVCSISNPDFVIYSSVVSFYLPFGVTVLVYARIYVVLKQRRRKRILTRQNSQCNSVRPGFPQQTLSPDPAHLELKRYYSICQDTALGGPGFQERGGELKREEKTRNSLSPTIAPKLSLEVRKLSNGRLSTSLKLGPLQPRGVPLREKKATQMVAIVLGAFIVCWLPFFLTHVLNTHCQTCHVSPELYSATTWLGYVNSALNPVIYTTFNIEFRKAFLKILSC
MEASURE: Ki (nM)
// note: answer is a bare numeric in nM

Q. // fetch Ki; item: CCCN1CCC(c2ccc(NS(=O)(=O)c3ccc(C(C)C)cc3)c(OC)c2)C1.Cl (stereo not shown) [Example 136, hydrochloride] ; system: human dopamine D3 receptors (Homo sapiens, UniProt P35462)
A. 0.27

Q. Please indicate recorded Ki of CCCN1CC[C@@H](c2ccc(NS(=O)(=O)c3ccc(-c4cnco4)s3)cc2)C1 measured with human dopamine D3 receptors (Homo sapiens, UniProt P35462).
A. 5.59

Q. Fill: Ki (human dopamine D3 receptors (Homo sapiens, UniProt P35462)) for this compound CC(C)c1ccc(S(=O)(=O)Nc2ccc([C@@H]3CCN(CCCO)C3)cc2)cc1
A. 0.41

Q. Specify Ki for C=C(C)c1ccc(S(=O)(=O)Nc2ccc([C@@H]3CCN(CCC)C3)cc2)s1 , system human dopamine D3 receptors (Homo sapiens, UniProt P35462).
A. 0.67

---

# SYSTEM_TESTED: human dopamine D3 receptors (Homo sapiens, UniProt P35462)
# Construct: expressed in transfected cells
# ASSAY_COMMENT: Dopamine D3 receptor binding, displacement of [125I]-iodosulpride
# COND: selectivity ratio of the receptor binding constants D2 over D3
MEASURE: Ki(D2)*/Ki(D3)*
Form: value (number only, do not type unit).

Q. Look up and state reported Ki(D2)*/Ki(D3)* for C=CCN1CC[C@@H](c2ccc(NS(=O)(=O)c3ccc([C@@H](C)CF)cc3)cc2)C1
A. 86

Q. Entry C=CCN1CC[C@H](c2ccc(NS(=O)(=O)c3ccc(C4CC4(F)F)cc3)cc2)C1 (some centres unmarked) needs its Ki(D2)*/Ki(D3)* filled in; supply it.
A. 25

Q. Return the recorded Ki(D2)*/Ki(D3)* value; entry: C=C(C)c1ccc(S(=O)(=O)Nc2ccc([C@@H]3CCN(CCC)C3)cc2)s1
A. 41

Q. Output measured Ki(D2)*/Ki(D3)* for this item: CCCN1CC[C@@H](c2ccc(NS(=O)(=O)c3ccc(OC(F)F)cc3)cc2)C1.Cl
A. 49

Q. Hello, please tell me recorded Ki(D2)*/Ki(D3)* for this one: CC(C)c1ccc(S(=O)(=O)Nc2ccc([C@@H]3CCN(CCCF)C3)cc2)cc1
A. 21

Q. Give the value of Ki(D2)*/Ki(D3)* reported for the following: CCCN1CC[C@@H](c2ccc(NS(=O)(=O)c3ccc(-c4cnn(C)c4)cc3)cc2)C1
A. 32

Q. Write down Ki(D2)*/Ki(D3)* measured for item CCCN1CC[C@@H](c2ccc(NS(=O)(=O)c3ccc(OC(F)(F)F)cc3)cc2)C1.Cl
A. 61

Q. Supply Ki(D2)*/Ki(D3)* value. Item: CCCN1CC[C@@H](c2ccc(NS(=O)(=O)c3ccc(O)cc3)cc2)C1
A. 31

---

# SYSTEM_TESTED: human dopamine D3 receptors (Homo sapiens, UniProt P35462)
# Construct: expressed in transfected cells
# ASSAY_COMMENT: Dopamine D3 receptor binding, displacement of [125I]-iodosulpride
# COND: selectivity ratio of the receptor binding constants D2 over D3
# Experimental: The substance to be tested was either dissolved in methanol/Chremophor® (BASFAG) or in dimethyl sulfoxide and then diluted with water to the desired concentration. Each assay mixture was run in triplicate. […] The inhibition curves were analyzed by means of iterative nonlinear regression analysis using the Statistical Analysis System (SAS) which is similar to the “LIGAND” program described by Munson and Rodbard. […]
Structures can show the parent of a compound that is named as a salt.
The label is 1.0 for Ki(D2)*/Ki(D3)* below 30 and 0.0 for Ki(D2)*/Ki(D3)* equal to or exceeding 30.

Q. Given the entry CN1CC[C@@H](c2ccc(NS(=O)(=O)c3ccc(OC(F)(F)F)cc3)cc2)C1 , would its reported Ki(D2)*/Ki(D3)* be below 30?
A. 0.0

Q. A record lists CCCc1ccc(S(=O)(=O)Nc2ccc([C@@H]3CCN(CCC)C3)cc2)s1 . Is its Ki(D2)*/Ki(D3)* below 30?
A. 0.0

Q. Determine if CCCN1CC[C@@H](c2ccc(NS(=O)(=O)c3cc(F)c(Br)cc3F)cc2)C1 shows Ki(D2)*/Ki(D3)* strictly lower than 30.
A. 0.0

Q. hey, is Ki(D2)*/Ki(D3)* for CCCN1CCC(c2ccc(NS(=O)(=O)c3ccc(C(C)C)cc3)cn2)C1 (single isomer, unassigned; (-)) [Example 131] lower than 30 or not?
A. 0.0

Q. Does the reported Ki(D2)*/Ki(D3)* of the following compound sit strictly below 30? CCCN1CC(c2ccc(NS(=O)(=O)c3ccc([C@H](C)CF)cc3)cc2)C1
A. 0.0

Q. Lab note: confirm whether the reported Ki(D2)*/Ki(D3)* for this compound is below 30, equality not counting. compound: CCCN1CC[C@@H](c2ccc(NS(=O)(=O)c3ccc(C4CCCC4)cc3)cc2)C1 [Example 37, hydrochloride]
A. 1.0

Q. Please determine if CCCN1CC[C@@H](c2ccc(NS(=O)(=O)c3ccc(-c4ccon4)s3)cc2)C1 is below 30 in terms of Ki(D2)*/Ki(D3)*.
A. 0.0

Q. Does CCCN1CCC(c2ccc(NS(=O)(=O)c3ccc(C(C)C)cc3)cn2)C1 (stereo not shown) [Example 31] have Ki(D2)*/Ki(D3)* strictly under 30?
A. 1.0

Q. Strictly below 30 in Ki(D2)*/Ki(D3)*? CCCN1CC[C@@H](c2ccc(NS(=O)(=O)c3ccc(N4CCOCC4)cc3)cc2)C1.Cl
A. 0.0

Q. Quick check: Ki(D2)*/Ki(D3)* of CCCN1CC[C@@H](c2ccc(NS(=O)(=O)c3ccc(CC(F)(F)F)cc3)cc2)C1 under 30?
A. 0.0

Q. Dear reviewer, please state whether CCCN1CCC(c2ccc(NS(=O)(=O)c3ccc(C(C)C)cc3)c(OC)c2)C1.Cl (stereo not shown) has Ki(D2)*/Ki(D3)* strictly beneath 30.
A. 1.0

Q. Given the entry CCCN1CC[C@@H](c2ccc(NS(=O)(=O)c3ccc(-c4cnco4)s3)cc2)C1 , would its reported Ki(D2)*/Ki(D3)* be below 30?
A. 0.0

Q. Dear reviewer, please state whether CCCN1CC[C@@H](c2ccc(NS(=O)(=O)c3ccc(Cl)cc3)cc2)C1 has Ki(D2)*/Ki(D3)* strictly beneath 30.
A. 0.0

Q. Record CC(C)c1ccc(S(=O)(=O)Nc2ccc([C@@H]3CCN(CC4CC4)C3)cc2)cc1 : is its Ki(D2)*/Ki(D3)* strictly below 30?
A. 1.0

Q. Is Ki(D2)*/Ki(D3)* strictly under 30 for the entry CCN1CC[C@@H](c2ccc(NS(=O)(=O)c3ccc(C(C)C)cc3)cc2)C1 ?
A. 1.0
